meta.source: patent US11773113B2

# Assay details: Study of particle size distribution (PSD, laser particle size analytic meter)
# Type: physicochemical
# Assay setup: volume distribution, dispersion medium Isopar G
Measured metric: D90 (μm)

A selection of reference data follows.
N#Cc1ccc(Oc2ccc3c(c2)COB3O)cc1 [Crystal form I]	20.35
N#Cc1ccc(Oc2ccc3c(c2)COB3O)cc1 [Crystal form III]	903.1

(I) N#Cc1ccc(Oc2ccc3c(c2)COB3O)cc1 [Crystal form IV]
(II) N#Cc1ccc(Oc2ccc3c(c2)COB3O)cc1 [Crystal form II]
[ask] Parameter check: reported D90 is higher for which label, I or II ? # answer = label of selected item
[reply] I

* * *

# Assay details: Study of particle size distribution (PSD, laser particle size analytic meter)
# Type: physicochemical
# Assay setup: volume distribution, dispersion medium Isopar G
Measured metric: D10 (μm)

N#Cc1ccc(Oc2ccc3c(c2)COB3O)cc1 [Crystal form IV]	13.43
N#Cc1ccc(Oc2ccc3c(c2)COB3O)cc1 [Crystal form I]	1.69

(A) N#Cc1ccc(Oc2ccc3c(c2)COB3O)cc1 [Crystal form II]
(B) N#Cc1ccc(Oc2ccc3c(c2)COB3O)cc1 [Crystal form III]
[ask] Form: Entry with minimum D10 (choose one): A / B Indicate which entry you chose by stating its label.
[reply] A
